# growth per entry
Tested on: SK-MEL-2 melanoma
Assay: NCI-60 one-dose screen, 48 h (100 = growth as untreated, 0 = no growth, -100 = all killed)
Details: 10 µM unless noted
Procedure: Growth inhibition of the SK-MEL-2 human tumor cell line is measured as a screen for anti-cancer activity. Cells are grown in 96 well plates and exposed to the test compound for 48 hours. Compounds are tested at a single concentration, which is 10^-5 M for most compounds. The reported endpoint is percent growth (GI% or GIPRCNT), where numbers from 0 - 100% represent growth inhibition, and numbers from -100% - 0 represent cell death. For example, a value of 40 represents 60% growth inhibition. […]
The panel holds about 83,000 compounds, 20% with a hit somewhere; the sample as a whole holds those more often.
Please give a number only; it is taken to be in %.

molecule: Cc1sc(N=Nc2ccc(N(C)C)cc2)[n+]([O-])c1C
target-under-test: SK-MEL-2 melanoma
quantity-unit: %
growth: 114

molecule: COc1cc(C2C=C(C)N=C3SC(C)=NN32)cc(OC)c1OC (stereo not given)
target-under-test: SK-MEL-2 melanoma
quantity-unit: %
growth: 107

molecule: CCN1C(=O)N(CC)C2Nn3c(s/c(=C\c4cccc(F)c4)c3=O)=NC21 (stereo not given)
target-under-test: SK-MEL-2 melanoma
quantity-unit: %
growth: 85.3

molecule: O=C(Nc1ccc(F)c(Cl)c1)c1n[nH]c(=O)c2ccccc12
target-under-test: SK-MEL-2 melanoma
quantity-unit: %
growth: 74.8

Kindly review the next molecule as well.
## Task State its growth for this molecule: `CCn1cc(C(=O)O)c(=O)c2cc(F)c(N3CCN(S(=O)(=O)c4cccc5ccccc45)CC3)cc21`
## Result 8.82

###

Tested on: SF-295 CNS
Assay: NCI-60 one-dose screen, 48 h (100 = growth as untreated, 0 = no growth, -100 = all killed)
Details: 10 µM unless noted
Compounds without any hit were thinned out: in the full panel of roughly 83,000, 20% have a hit.
experimental-endpoint: growth (%)
# unit: % | format: bare number

compound: Cc1cc(C)c(NC(=O)c2sc3nc4c(cc3c2N)CN(Cc2ccccc2)CC4)c(C)c1
target-under-test: SF-295 CNS
value-reported: 21.9
--
compound: CCC(=O)Oc1ccc2c(c1)CC[C@@H]1[C@@H]2CC[C@]2(C)C[C@H](OC(=O)CC)C[C@@H]12
target-under-test: SF-295 CNS
value-reported: 51.6
--
compound: ClC1=C(Cl)C(Cl)=C(Cl)C1=Cc1ccc(Cl)cc1Cl
target-under-test: SF-295 CNS
value-reported: -16.6
--
compound: COc1ncc(-c2ccc3ncnc(Nc4cccc(Cl)c4)c3c2)cc1NS(=O)(=O)C1CC1
target-under-test: SF-295 CNS
value-reported: 34.2
--
compound: COc1ccc(/C=C/C(=O)c2ccc(NC(=O)CN3CCN(c4cc5c(cc4F)c(=O)c(C(=O)O)cn5C4CC4)CC3)cc2)cc1
target-under-test: SF-295 CNS
value-reported: 95.3

## Task Quote SF-295 CNS growth for entry `c1ccc([P+](CCC[P+](c2ccccc2)(c2ccccc2)c2ccccc2)(c2ccccc2)c2ccccc2)cc1` .
## Result 73.4

## Task Fill in: growth on SF-295 CNS, entry CCN1C(=O)N(CC)C2Nn3c(s/c(=C4\C(=O)N(C5CCCC5)c5ccccc54)c3=O)=NC21 (stereo not drawn)
## Result 60.6
